Entries annotated with measured emission maximum
assay: solvent given as SMILES; settings: in CO
# unit: nm | format: bare number

Solved cases below.
INSERT INTO results (molecular_string, reported) VALUES
  ('COc1ccc(C2=C3C=c4c(oc5cc6c(cc45)[C@H]4CC[C@]5(C)C(=O)CC[C@H]5[C@@H]4CC6)=[N+]3[B-](F)(F)n3c2cc2c4cc5c(cc4oc23)CC[C@@H]2[C@@H]5CC[C@]3(C)C(=O)CC[C@@H]23)cc1', 613.5),
  ('Cc1ccc2c(c1)nnn2-c1c(C#N)c2c(N)ncnc2n1[C@H]1C[C@H](O)[C@@H](CO)O1', 419),
  ('CC1=N/C(=C\c2ccc(N(C)C)cc2)C(=O)N1C', 492);

## Task # lookup: emission maximum of N#Cc1cccc2[nH]ccc12
## Result 390

* * *

assay: solvent given as SMILES; conditions: in CC(C)=O
Entries annotated with measured emission maximum
# unit: nm | format: bare number

Solved cases below.
INSERT INTO measurements (molecular_string, u, reported) VALUES
  ('c1ccc(-c2ccc(-c3ccc(-n4c5ccccc5c5ccccc54)cc3)c3nsnc23)cc1', 'nm', 562),
  ('Cc1ccc(C(=O)NN2C3=C(CC4=C2CCCC4=O)C(=O)CCC3)cc1', 'nm', 368),
  ('CC1(C)c2cccc(-c3nc(-c4ccccc4)nc(-c4ccccc4)n3)c2Oc2c(-n3c4ccccc4c4ccccc43)cccc21', 'nm', 469),
  ('COc1ccc2c(c1)sc1[n+]2[B-](F)(F)OC(c2ccc(N(C)C)cc2)=N1', 'nm', 477),
  ('C#CCN1C(=O)/C(=C/c2cc(OC(C)C)ccc2OC(C)C)N=C1C', 'nm', 487);

## Task # lookup: emission maximum of COc1ccc(/C=C2\OC(=O)c3ccccc32)cc1
## Result 452.49

## Task Note, next up: CC1=[N+]2C(=C(c3ccc(N4CCCCC4)cc3)c3ccc(C)n3[B-]2(F)F)C=C1
## Result 517

## Task Note, next up: CN(C)CCN(Cc1c2ccccc2cc2ccccc12)c1ccc([N+](=O)[O-])cc1[N+](=O)[O-]
## Result 393

## Task Note, next up: Nc1ccc2c3c(cccc13)C(=O)c1ccccc1-2
## Result 610.13

## Task Note, next up: COc1ccc(C2=CC(c3ccc4cc(N(C)C)ccc4c3)=[O+][B-](F)(F)O2)cc1
## Result 660

## Task Note, next up: Nc1ccc(C#Cc2ccc3ccc4ccc(C#Cc5ccc(N)cc5)c5ccc2c3c45)cc1
## Result 538

## Task Note, next up: CN(C)c1ccc(C#Cc2ccc3ccc4ccc(C#Cc5ccc(N(C)C)cc5)c5ccc2c3c45)cc1
## Result 570.9

## Task Note, next up: CN(C)c1ccc(C#Cc2ccc(C#N)cc2)cc1
## Result 543.01

## Task Note, next up: CCC1(CC)c2ccccc2-c2c1c1c(c3c2C(CC)(CC)c2cc(B(c4c(C)cc(C)cc4C)c4c(C)cc(C)cc4C)ccc2-3)C(CC)(CC)c2cc(B(c3c(C)cc(C)cc3C)c3c(C)cc(C)cc3C)ccc2-1
## Result 394

## Task Note, next up: C(=C\c1cccc2ccccc12)/c1ccc(-c2nnc(-c3ccc(-c4cc5ccccc5s4)cc3)o2)cc1
## Result 437

## Task Note, next up: CCCCCCN(c1ccccc1)c1ccc2c(c1)C(CC)(CC)c1cc(/C=C/c3ccc(/C=C(\C#N)C(=O)O)s3)ccc1-2
## Result 574

## Task Note, next up: c1ccc(-c2nn(-c3ccccc3)c3nc4ccc(N(c5ccccc5)c5cccc6ccccc56)cc4cc23)cc1
## Result 538.21

## Task Note, next up: C#CCNC1=C2C=CC=[N+]2[B-](F)(F)n2cccc21
## Result 466.5

* * *

test: solvent given as SMILES; conditions: in ClCCl
readout_name: emission maximum (nm)
# unit: nm | format: bare number

Solved cases below.
INSERT INTO measurements (compound, reported) VALUES
  ('CCn1c2ccccc2c2cc(C#Cc3cc(C#Cc4ccc5c(c4)c4ccccc4n5CC)nc(C#N)n3)ccc21', 510),
  ('COc1ccc2cc(C#N)c(=N)oc2c1', 387),
  ('CCn1c2ccccc2c2cc(C#Cc3cc(C#Cc4ccc5c(c4)c4ccccc4n5CC)nc(OC)n3)ccc21', 467);

## Task # lookup: emission maximum of c1ccc2c(c1)OP1(=NP3(=NP(Oc4ccc5ccc6cccc7ccc4c5c67)(Oc4ccc5ccc6cccc7ccc4c5c67)=N1)Oc1ccccc1-c1ccccc1O3)Oc1ccccc1-2
## Result 463

## Task Note, next up: c1cncc(-c2ccc(-c3c4ccc(-c5cccnc5)cc4c(-c4ccc(-c5cccnc5)cc4)c4ccc(-c5cccnc5)cc34)cc2)c1
## Result 443

## Task Note, next up: C(=C\c1nc2c(c(N3CCOCC3)n1)CCCC2)/c1ccccc1
## Result 333

* * *

test: solvent given as SMILES; conditions: in CCOCC
Our labelling divides records by emission maximum into ranges: group A: < 400 nm; group B: ≥ 400 nm and < 500 nm; group C: ≥ 500 nm

Record excerpt, results attached:
INSERT INTO measurements (molecular_string, label_value) VALUES
  ('Nc1ccc2c(c1)Cc1ccccc1-2', 'group A'),
  ('Nc1ccc2c3c(cccc13)C(=O)c1ccccc1-2', 'group C'),
  ('Cc1ccc(-c2cc(-c3ccccc3)c(C#N)c(=S)[nH]2)cc1', 'group C'),
  ('N#Cc1ccc(/C=C2\OC(=O)c3cc(N)ccc32)cc1', 'group B'),
  ('c1ccc(-n2c(-c3ccc(-c4ccc(-c5ccc(-c6nc7c8ccccc8c8ccccc8c7n6-c6ccccc6)cc5)cc4)cc3)nc3ccccc32)cc1', 'group B');

## Task Each compound maps to one class by emission maximum. Which class for CC(C)(C)c1ccc(-c2nc3c4ccc(-c5ccccc5)cc4c4cc(-c5ccccc5)ccc4c3n2-c2ccc(C(C)(C)C)cc2)cc1 ?
## Result group A

## Task Note, next up: Oc1ccc(/N=C/c2ccccc2Oc2ccccc2)cc1
## Result group B

* * *

assay: solvent given as SMILES; conditions: in O=P(c1ccccc1)(c1ccccc1)c1ccccc1Oc1ccccc1P(=O)(c1ccccc1)c1ccccc1
Entries annotated with measured emission maximum
# unit: nm | format: bare number

INSERT INTO assay_data (molecular_string, readout_name, u, reported) VALUES
  ('CC1(C)c2ccccc2N(c2ccccc2)c2ccc(-c3ccc(S(=O)(=O)c4ccc(-c5ccc6c(c5)C(C)(C)c5ccccc5N6c5ccccc5)cc4)cc3)cc21', 'emission maximum', 'nm', 439),
  ('N#Cc1cc(C#N)c(-n2c3ccccc3c3cc(-c4ccc5c(c4)c4ccccc4n5-c4cc(-n5c6ccccc6c6ccccc65)c(C#N)cc4C#N)ccc32)cc1-n1c2ccccc2c2ccccc21', 'emission maximum', 'nm', 470),
  ('Cc1cc(N2c3ccccc3[Si](c3ccccc3)(c3ccccc3)c3ccccc32)c(C)cc1-c1nc(-c2ccccc2)nc(-c2ccccc2)n1', 'emission maximum', 'nm', 465),
  ('Cc1cc(-c2nc(-c3ccccc3)nc(-c3ccccc3)n2)ccc1-n1c2ccccc2c2cc3c(cc21)C1c2ccccc2C3c2ccccc21', 'emission maximum', 'nm', 451),
  ('N#Cc1c(N2c3ccccc3C(c3ccccc3)(c3ccccc3)c3ccccc32)cccc1N1c2ccccc2C(c2ccccc2)(c2ccccc2)c2ccccc21', 'emission maximum', 'nm', 466);

## Task # lookup: emission maximum of c1ccc(-c2nc(-c3ccccc3)nc(-c3ccc(-n4c5ccccc5c5cc(-c6ccc7c(c6)c6ccccc6n7-c6ccccc6)ccc54)cc3)n2)cc1
## Result 458.07

* * *

test: solvent given as SMILES; settings: in CCCCCC
Our labelling divides records by emission maximum into ranges: bucket 1 = under 400 nm, bucket 2 = from 400 nm up to 600 nm, bucket 3 = 600 nm and over

## Task Each compound maps to one class by emission maximum. Which class for CN(C)c1ccc(C#Cc2ccc3ccc4ccc(C#Cc5ccc(N(C)C)cc5)c5ccc2c3c45)cc1 ?
## Result bucket 2

## Task Note, next up: CCOC(=O)COc1ccc(/C=C/C2=C3c4ccccc4C(c4ccc[nH]4)=[N+]3[B-](F)(F)n3ccc(C)c32)cc1
## Result bucket 3

## Task Note, next up: O=C1Nc2ccccc2/C1=C/C(=O)c1ccc(O)cc1
## Result bucket 1

## Task Note, next up: CCCCCCCCCCCCN1C(=O)c2cccc3c(N(Cc4ccccn4)Cc4ccccn4)c4ccccc4c(c23)C1=O
## Result bucket 2

## Task Note, next up: CCC1=C(C)C2=C(c3c4ccccc4c(-c4ccccc4)c4ccccc34)c3c(C)c(CC)c(C)n3[B-](F)(F)[N+]2=C1C
## Result bucket 2

## Task Note, next up: COc1ccc(-n2c(C)ccc2C)cc1
## Result bucket 1

* * *

experiment: solvent given as SMILES; conditions: in C1CCCCC1
Entries annotated with measured emission maximum
# unit: nm | format: bare number

INSERT INTO measurements (molecular_string, readout_name, u, reported) VALUES
  ('O=CN1N=C(c2ccc(Br)cc2)C[C@@H]1c1ccccc1', 'emission maximum', 'nm', 348);

## Task # lookup: emission maximum of Cc1ccc(C2=C3C=C(I)C=[N+]3[B-](F)(F)n3cc(I)cc32)cc1
## Result 567.5

## Task Note, next up: O=C(O)c1ccccc1Nc1ccccc1
## Result 430
